# TARGET OF ASSAY: POLγA:R309C (Homo sapiens, UniProt P54098, R309C)
# Sequence (P54098 whole entry R309C): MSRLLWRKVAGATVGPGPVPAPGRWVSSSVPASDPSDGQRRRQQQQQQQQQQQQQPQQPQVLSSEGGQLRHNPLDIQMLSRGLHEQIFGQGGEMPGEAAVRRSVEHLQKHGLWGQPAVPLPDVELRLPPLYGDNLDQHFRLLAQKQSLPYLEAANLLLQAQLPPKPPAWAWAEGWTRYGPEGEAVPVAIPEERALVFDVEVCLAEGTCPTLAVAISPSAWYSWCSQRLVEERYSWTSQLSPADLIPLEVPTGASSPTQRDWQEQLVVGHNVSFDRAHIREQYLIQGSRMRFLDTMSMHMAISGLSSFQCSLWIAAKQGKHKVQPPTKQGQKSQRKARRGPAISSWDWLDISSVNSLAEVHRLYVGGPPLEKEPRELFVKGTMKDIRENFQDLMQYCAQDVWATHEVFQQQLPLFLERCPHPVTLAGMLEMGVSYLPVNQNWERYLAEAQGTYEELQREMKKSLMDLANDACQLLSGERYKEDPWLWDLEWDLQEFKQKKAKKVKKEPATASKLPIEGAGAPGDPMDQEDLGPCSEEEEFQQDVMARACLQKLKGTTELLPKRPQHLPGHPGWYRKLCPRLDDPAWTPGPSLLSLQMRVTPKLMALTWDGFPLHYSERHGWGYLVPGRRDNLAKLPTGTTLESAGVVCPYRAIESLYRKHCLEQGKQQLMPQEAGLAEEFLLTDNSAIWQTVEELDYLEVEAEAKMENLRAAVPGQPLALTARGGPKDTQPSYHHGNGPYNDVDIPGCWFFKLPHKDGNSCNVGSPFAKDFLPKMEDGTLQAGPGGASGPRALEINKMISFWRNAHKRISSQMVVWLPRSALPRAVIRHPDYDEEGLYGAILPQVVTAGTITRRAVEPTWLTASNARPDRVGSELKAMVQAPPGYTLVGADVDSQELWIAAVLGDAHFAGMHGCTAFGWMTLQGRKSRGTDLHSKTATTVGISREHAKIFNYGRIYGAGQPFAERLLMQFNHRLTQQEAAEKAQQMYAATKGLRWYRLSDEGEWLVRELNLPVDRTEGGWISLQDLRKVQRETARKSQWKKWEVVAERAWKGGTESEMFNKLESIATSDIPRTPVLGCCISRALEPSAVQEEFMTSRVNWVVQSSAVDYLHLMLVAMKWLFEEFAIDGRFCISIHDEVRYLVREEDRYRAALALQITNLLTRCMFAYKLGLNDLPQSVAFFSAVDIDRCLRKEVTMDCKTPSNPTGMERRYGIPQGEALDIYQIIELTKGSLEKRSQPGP
# Sequence (Q9UHN1 whole entry partner): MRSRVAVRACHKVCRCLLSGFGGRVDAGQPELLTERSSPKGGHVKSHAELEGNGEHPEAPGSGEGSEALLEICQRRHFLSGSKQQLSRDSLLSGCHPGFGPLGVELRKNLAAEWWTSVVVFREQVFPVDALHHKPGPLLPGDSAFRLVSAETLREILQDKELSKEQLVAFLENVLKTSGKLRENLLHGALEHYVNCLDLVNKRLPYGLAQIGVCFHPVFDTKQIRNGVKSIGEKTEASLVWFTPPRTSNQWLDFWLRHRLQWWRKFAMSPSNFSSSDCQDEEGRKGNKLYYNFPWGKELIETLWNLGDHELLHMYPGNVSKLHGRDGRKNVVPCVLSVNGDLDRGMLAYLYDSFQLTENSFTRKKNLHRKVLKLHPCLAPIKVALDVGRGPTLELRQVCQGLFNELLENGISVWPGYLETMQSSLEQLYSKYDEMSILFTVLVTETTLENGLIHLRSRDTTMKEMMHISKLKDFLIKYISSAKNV
# PROTOCOL NOTES: DNA polymerization assay, POLγA:R309C mutant
# Format: biochemical
# CONDITION LABEL: stimulation of polymerase activity, primed M13mp18 ssDNA, 37° C. 2 hours
# Method: DNA Polymerization Assay to Monitor Effects on Human Wildtype POLγ and Four Disease-Causing Mutant Variants of Human POLγ. The ability of small molecules to stimulate the polymerase activity of POLγ was analyzed in a quantitative fluorescence SYBR Green I assay with fluorescence intensity (FI) readout. […] The assay was performed in the 384-well plate format. Upon addition of compounds, changes in double-stranded DNA synthesis activity can be monitored by following effects on fluorescent intensity. […]
Assign labels as follows, please: 1.0 for AC50 below 3 µM; 0.0 for AC50 equal to or exceeding 3 µM.

molecule=Cc1cnc(-c2ccc(Cl)c(NS(=O)(=O)c3cc(C)c(Cl)cc3C)c2)s1 category_label=0.0
molecule=Cc1cnc(-c2cccc(NS(=O)(=O)c3cc(C)c(Cl)cc3C)c2)s1 category_label=1.0
molecule=Cc1cc2cc(NS(=O)(=O)c3cc(C)c(Cl)cc3C)ccc2[nH]1 category_label=0.0
molecule="Cc1ccc(C)c(S(=O)(=O)Nc2cccc(C(=O)N3CCCCC3C#N)c2)c1 (stereo not drawn)" category_label=0.0
molecule=Cc1cnc(-c2ccc(C)c(NS(=O)(=O)c3cc(C)c(Cl)cc3C)c2)s1 category_label=0.0
molecule=Cc1cc(S(=O)(=O)Nc2csc(-c3ccccc3)n2)c(C)cc1Cl category_label=1.0
molecule=Cc1ccc(C)c(S(=O)(=O)Nc2cccc(C(=O)N3CCCCC3)c2)c1 category_label=0.0

Okay, next one:
Input line: Confirm or reject: AC50 of Cc1cc(S(=O)(=O)Nc2cccc(-c3cc[nH]n3)c2)c(C)cc1Cl lies strictly below 3 µM
Output line: 0.0
